The measurements presented in this section are drawn from patent US7488799B2.

Biological target: mouse DP receptor (Mus musculus, UniProt P70263)
Construct: A full length cDNA for the mouse DP receptor was obtained by PCR; expressed in transfected cells
Sequence (P70263 1-357): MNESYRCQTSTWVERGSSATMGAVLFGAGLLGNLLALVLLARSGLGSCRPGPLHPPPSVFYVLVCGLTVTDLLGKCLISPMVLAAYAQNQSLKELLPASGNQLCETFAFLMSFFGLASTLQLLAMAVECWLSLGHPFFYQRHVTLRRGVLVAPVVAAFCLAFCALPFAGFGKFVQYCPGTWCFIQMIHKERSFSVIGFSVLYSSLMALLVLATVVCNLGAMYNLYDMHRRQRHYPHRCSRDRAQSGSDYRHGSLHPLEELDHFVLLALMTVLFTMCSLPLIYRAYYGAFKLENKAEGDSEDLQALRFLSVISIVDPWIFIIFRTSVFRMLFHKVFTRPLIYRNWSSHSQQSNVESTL
Test: Intracellular calcium assay (FLIPR), mouse DP receptor in HEK293-Gα16 cells
Format: cell-based
Conditions: mouse DP-expressing HEK293-Gα16 cells, FIG. 6, read-out: EC50, intracellular calcium mobilization
Observable: EC50 (nM)
Quick note: give the figure in nM, leave out the unit.

Documented EC50 of CCCCC[C@H](O)/C=C/[C@H]1C(=O)C[C@H](O)[C@@H]1C/C=C\CCCC(=O)O [PGD2, Prostaglandin D2] : 18

* * *

target: mouse DP receptor (Mus musculus, UniProt P70263); construct: A full length cDNA for the mouse DP receptor was obtained by PCR; expressed in transfected cells; assay: SPA cAMP assay, mouse DP cell line; format: cell-based; settings: 15 minutes stimulation, FIG. 7, read-out: EC50, cAMP accumulation
Observable: EC50 (nM)
Quick note: give the figure in nM, leave out the unit.

Documented EC50 of CCCCC[C@H](O)/C=C/[C@H]1C(=O)C[C@H](O)[C@@H]1C/C=C\CCCC(=O)O [PGD2, Prostaglandin D2] : 0.5

* * *

test system: recombinant guinea pig DP receptor; experiment: Intracellular calcium assay (FLIPR), guinea pig DP receptor in HEK293-Gα16 cells; format: cell-based, guinea pig (Cavia porcellus); settings: guinea pig DP-expressing HEK293-Gα16 cells, FIG. 6, read-out: EC50, intracellular calcium mobilization
Observable: pEC50
Here pEC50 is given on a logarithmic scale as minus log10 of the concentration in mol/L.

Documented pEC50 of CCCCC[C@H](O)/C=C/[C@H]1C(=O)C[C@H](O)[C@@H]1C/C=C\CCCC(=O)O [PGD2, Prostaglandin D2] : 8.85
